Entries annotated with measured melting point

Please review the entries below; each comes with its answer.
>  <Compound>
O=C(/C=C/c1ccc(O)cc1)CC(=O)/C=C/c1cc(O)ccc1-c1cccc2ccccc12

>  <Value reported>
215 to 221 °C

$$$$
>  <Compound>
O=C(/C=C/c1ccc(O)cc1)CC(=O)/C=C/c1ccc(-n2ccnc2)cc1

>  <Value reported>
255 to 260 °C

$$$$
>  <Compound>
O=C(/C=C/c1ccc(O)cc1)CC(=O)/C=C/c1cc(O)ccc1Br

>  <Value reported>
182 to 186 °C

$$$$
>  <Compound>
COc1cc(/C=C/C(=O)CC(=O)/C=C/c2ccc(O)cc2)ccc1F

>  <Value reported>
136 to 143 °C

$$$$
>  <Compound>
O=C(/C=C/c1ccc(O)cc1)CC(=O)/C=C/c1cc(OCc2ccccc2)ccc1[N+](=O)[O-]

>  <Value reported>
168 to 172 °C

$$$$
>  <Compound>
O=C(/C=C/c1ccc(O)cc1)CC(=O)/C=C/c1cc(O)ccc1-c1ccccc1

>  <Value reported>
179 to 186 °C

$$$$
>  <Compound>
COc1ccc(/C=C/C(=O)CC(=O)/C=C/c2ccc(OC)c(O)c2)c(O)c1

>  <Value reported>
147 to 152 °C

$$$$
>  <Compound>
CC(C)(C)OC(=O)N[C@H](Cc1ccccc1)C(=O)Nc1ccc(/C=C/C(=O)CC(=O)/C=C/c2ccc(O)cc2)cc1

>  <Value reported>
113 to 120 °C

$$$$
>  <Compound>
COc1ccc(/C=C/C(=O)CC(=O)/C=C/c2ccc(O)cc2Cl)cc1O

>  <Value reported>
120 to 130 °C

$$$$
>  <Compound>
COc1ccc(/C=C/C(=O)CC(=O)/C=C/c2ccc(O)cc2)cc1O

>  <Value reported>
207 to 210 °C

$$$$

Exam item: Entry COc1cc(O)cc(/C=C/C(=O)CC(=O)/C=C/c2ccc(O)c(OC)c2)c1 : reported melting point = ?
Marked response: 69 to 75 °C

Exam item: Entry COc1ccc(/C=C/C(=O)CC(=O)/C=C/c2ccc3ccccc3c2)cc1O : reported melting point = ?
Marked response: 193 to 194 °C

Exam item: Entry COc1cc(N(C)C)ccc1/C=C/C(=O)CC(=O)/C=C/c1ccc(N(C)C)cc1OC : reported melting point = ?
Marked response: 76 to 86 °C

----------
Entries annotated with measured melting point

>  <Compound>
COc1cc(/C=C/C(=O)CC(=O)/C=C/c2ccc(N(C)C)cc2OC)ccc1O

>  <Result type>
melting point

>  <Value reported>
117 to 119 °C

$$$$

Exam item: Entry CN(C)CCCOc1ccc(/C=C/C(=O)CC(=O)/C=C/c2ccc(O)cc2)cc1 : reported melting point = ?
Marked response: 140 to 143 °C

Exam item: Entry O=C(/C=C/c1ccc2c(c1)OCCO2)CC(=O)/C=C/c1ccc2c(c1)OCCO2 : reported melting point = ?
Marked response: 184 to 187 °C

Exam item: Entry COc1ccc(/C=C/C(=O)CC(=O)/C=C/c2cccc3cccnc23)cc1O : reported melting point = ?
Marked response: 80 to 85 °C

Exam item: Entry O=C(/C=C/c1ccc(O)cc1)CC(=O)/C=C/c1ccccc1Br : reported melting point = ?
Marked response: 155 to 159 °C

----------
Result type: melting point

Please review the entries below; each comes with its answer.
>  <Compound>
CCN(CC)c1ccc(/C=C/C(=O)CC(=O)/C=C/c2ccc(O)cc2)c(OCCO)c1

>  <melting point>
182 to 186 °C

$$$$
>  <Compound>
COc1cc(/C=C/C(=O)CC(=O)/C=C/c2c(OC)cccc2OC)ccc1O

>  <melting point>
136 to 139 °C

$$$$
>  <Compound>
COc1cc(/C=C/C(=O)CC(=O)/C=C/c2cccc(O)c2OC)ccc1O

>  <melting point>
152 to 155 °C

$$$$
>  <Compound>
COc1ccc(/C=C/C(=O)CC(=O)/C=C/c2cccc(O)c2OC)cc1O

>  <melting point>
190 to 192 °C

$$$$
>  <Compound>
COc1cc(/C=C/C(=O)CC(=O)/C=C/c2ccc(Oc3ccccc3)cc2)ccc1O

>  <melting point>
45 to 46 °C

$$$$
>  <Compound>
O=C(/C=C/c1ccc(O)cc1)CC(=O)/C=C/c1c[nH]cn1

>  <melting point>
168 to 172 °C

$$$$
>  <Compound>
O=C(/C=C/c1ccc(O)cc1)CC(=O)/C=C/c1cccc(Oc2ccccc2)c1

>  <melting point>
194 to 198 °C

$$$$
>  <Compound>
CC(C)(C)OC(=O)N1CCN(c2ccccc2/C=C/C(=O)CC(=O)/C=C/c2ccc(O)cc2)CC1

>  <melting point>
115 to 121 °C

$$$$
>  <Compound>
CN(C)c1ccc(C(F)(F)F)cc1/C=C/C(=O)CC(=O)/C=C/c1ccc(O)cc1

>  <melting point>
68 to 74 °C

$$$$
>  <Compound>
COCOc1cccc(O)c1/C=C/C(=O)CC(=O)/C=C/c1ccc(O)c(OC)c1

>  <melting point>
76 to 81 °C

$$$$

Exam item: Entry COc1ccc(/C=C/C(=O)CC(=O)/C=C/c2ccc(F)c(OC)c2)cc1O : reported melting point = ?
Marked response: 145 to 147 °C

Exam item: Entry COc1cc(/C=C/C(=O)CC(=O)/C=C/c2ccccc2O)ccc1O : reported melting point = ?
Marked response: 77 to 83 °C

Exam item: Entry COc1ccc(/C=C/C(=O)CC(=O)/C=C/c2ccc3[nH]ccc3c2)cc1O : reported melting point = ?
Marked response: 182 to 185 °C
